This section presents compounds with their documented IC50 values.
Target: UniProt Q99788
Sequence (Q99788 whole entry): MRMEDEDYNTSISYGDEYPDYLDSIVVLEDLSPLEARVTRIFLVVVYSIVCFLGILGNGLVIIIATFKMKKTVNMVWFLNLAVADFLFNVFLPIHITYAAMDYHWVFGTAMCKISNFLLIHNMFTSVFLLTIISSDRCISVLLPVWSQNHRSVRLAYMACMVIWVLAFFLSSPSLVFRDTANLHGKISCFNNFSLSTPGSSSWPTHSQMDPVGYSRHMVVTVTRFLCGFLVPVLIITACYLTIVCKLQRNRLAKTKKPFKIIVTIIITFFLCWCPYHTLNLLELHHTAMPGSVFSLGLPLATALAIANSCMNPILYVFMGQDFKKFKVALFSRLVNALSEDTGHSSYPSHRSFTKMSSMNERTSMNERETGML
Assay: Displacement of [125I]-chemerin from ChemR23 (unknown origin) transfected in mouse BaF3 cells after 3 hrs by scintillation counting method

- Cc1cccc(C)c1N1C[C@@](CN(C)CC(F)(F)F)(C(=O)Nc2cc(C(F)(F)F)cc(C(F)(F)F)c2)[C@H](C)C1=O: ≤ 30 nM

Exercise: Input `Cc1cccc(C)c1N1C[C@]2(C(=O)Nc3cc(C(F)(F)F)cc(C(F)(F)F)c3)CC=CC[C@@H]2C1=O` , output reported IC50.
Solution: 300 to 6000 nM

Exercise: Input `Cc1cccc(C)c1N1C[C@@](CN2CCC(F)CC2)(C(=O)Nc2cc(C3CC3)cc(C(F)(F)F)c2)[C@H](C)C1=O` , output reported IC50.
Solution: 30 to 300 nM

Exercise: Input `Cc1cccc(C)c1N1C[C@](C(=O)Nc2cc(OC(C)C)cc(C(F)(F)F)c2)(C(C)C)CC1=O` , output reported IC50.
Solution: ≤ 30 nM

Exercise: Input `Cc1cccc(C)c1N1C[C@@](CN2CCOCC2)(C(=O)Nc2cc(C3CC3)cc(C(F)(F)F)c2)[C@H](C)C1=O` , output reported IC50.
Solution: 30 to 300 nM

Exercise: Input CCc1cccc(C)c1N1CC(C(=O)Nc2ccc(C)c(C(F)(F)F)c2)CC1=O (stereo not drawn) , output reported IC50.
Solution: 300 to 6000 nM

Exercise: Input Cc1cccc(C)c1N1CC2(C(=O)Nc3cc(C(F)(F)F)cc(C(F)(F)F)c3)CC2C1=O (stereo not drawn) , output reported IC50.
Solution: 300 to 6000 nM

Exercise: Input Cc1cccc(C)c1N1CC(C(=O)Nc2cc(N3CCCC3)cc(C(F)(F)F)c2)CC1=O (stereo not drawn) , output reported IC50.
Solution: 30 to 300 nM
